System: CTL from healthy donors having an HLA-A*0201 molecule
Experiment: Cytotoxic activity of CTL induced by HLA-A*0201-restricted eEF2 peptides
Assay type: cell-based, human
Settings: PBMC of HLA-A*0201 donors stimulated with peptide; 6th day after the final peptide stimulation

compound	experimental-target	cytotoxic activity
CC[C@H](C)[C@H](NC(=O)[C@@H]1CCCN1C(=O)[C@H](CC(=O)O)NC(=O)[C@H](CC(C)C)NC(=O)[C@H](CCSC)NC(=O)[C@@H](N)CC(C)C)C(=O)N[C@@H](Cc1ccccc1)C(=O)N[C@@H](CCCCN)C(=O)N[C@@H](CC(C)C)C(=O)O [eEF2292-300 2M9L]	CTL from healthy donors having an HLA-A*0201 molecule	increase cytotoxicity
CC[C@H](C)[C@H](NC(=O)[C@@H]1CCCN1C(=O)[C@H](CC(=O)O)NC(=O)[C@H](CC(C)C)NC(=O)[C@H](CCSC)NC(=O)[C@@H](N)CC(C)C)C(=O)N[C@@H](Cc1ccccc1)C(=O)N[C@@H](CCCCN)C(=O)N[C@H](C(=O)O)C(C)C [eEF2292-300 2M]	CTL from healthy donors having an HLA-A*0201 molecule	increase cytotoxicity
CC[C@H](C)[C@H](NC(=O)[C@@H]1CCCN1C(=O)[C@H](CC(=O)O)NC(=O)[C@H](CC(C)C)NC(=O)[C@H](CC(C)C)NC(=O)[C@@H](N)CC(C)C)C(=O)N[C@@H](Cc1ccccc1)C(=O)N[C@@H](CCCCN)C(=O)N[C@H](C(=O)O)C(C)C [eEF2292-300 2L]	CTL from healthy donors having an HLA-A*0201 molecule	increase cytotoxicity
